# assay_method_text: protein stability index of a GFP-peptide fusion (yeast GPS) (PSI 1-4); higher = more stable; sorted into four equal gates, so the index is relative within each strain
# test_context: san1∆
Where protein stability index equals or exceeds 2, the correct label is 1; where it does not, the label is 0.

residue_sequence	cat
NSANGSSLNGTNAKIPQ [SSN3]	1
VENDTFIERNFTPQEIE [FAS2]	1
ELSIRDVTHTLGMLDDN [SMC4]	1
TSKPVFSFGAATPSAKE [YLR335W/NUP2]	1
RRSLKKQGRIKNATEEL [CSN12]	1
DDVKNILNAKYTKETYQ [RPN6]	1
RSSRLHIVYSLLVNPDI [YML103C/NUP188]	0
EEIVVVASADYESQTFS [PRP8]	1
MLLITSGDSGVYTLACR [RPC11]	1
AYILAAQKTSFEYEGVQ [RPN1]	1
HHIHHFEKKELQEKFLN [IRR1]	0
FKSSVEMGKTDKSTKTA [YOR098C/NUP1]	1
LKIHQSHLVVPYCPIAS [YMR129W/POM152]	0
SGKSNTSNDASNKKETK [ITC1]	1
VSEDLLDERGHEKIEDE [RPN4]	1
YIEDFLLVIGGNQRKIL [YJR042W/NUP85]	0
SEDDSESGKVFIGRLPI [RPB2]	1
PHTTLVNECIAQSHQRF [CDC53]	1
PLLTKRKDLRDKLICSI [DIS3]	1
HGAFMDIIWLQRDLGLY [RRP6]	0
TLEQKVNLENPIPIAVL [FAS1]	0
NTTTRVIPQVEVGNRKH [SNF5]	1
SLLEKDIDAVNGAVGKR [ISW2]	1
TIGAIFLNHAFDYMNRY [CDC53]	0
NTENVESVPTPANAEPQ [ITC1]	1
GSSALADNKEDVKKPFS [YLR335W/NUP2]	1
TTIEEIFLHSLPVKEFQ [RPS2]	1
LICPQYGTENKDGEDII [CSL4]	1
ASFFFMVMFMHMAKGLY [COB]	0
KNLERLRGEYNDLQSET [SMC4]	1
SDPVCLFVCNKDPDVPL [POP3]	1
TKIKPFIKVVNYNHLLP [RPL27A]	1
NVQTQYREAPVIYRGPE [RET1]	1
PDENHDNTSHDEQDDDN [BRN1]	1
NLGEYESAVKYALAAKD [RPN2]	1
ERQQENLLIQRLNFNQN [SWI3]	1
SSNLYETIIEADKSLPS [YJR042W/NUP85]	1
LRSDFYILANHYLSRVL [YJL039C/NUP192]	1
EESLTVLNCLRTMYFIL [YJR042W/NUP85]	0
GTVGNSHKTTKEDTVSW [RPL11A]	1
TIVLSLNVKCTRNPDAP [RPC40]	1
QQIWKSPNFKNYLKYLE [SOH1]	0
ELNIIPRDLLRVIIQEL [PRP28]	0
RIHVNPSYYGVRDTSPH [BRR2]	0
PSYYGVRDTSPHGISVF [BRR2]	1
ENITNKVTEKVLTQLTA [CSI1]	1
RKTLKEKAIPKDQRATT [RPO26]	1
TGNNNNIATQQNMQQSL [GAL11]	1
EIHPITFPPEVLARISP [RRP43]	1
HGKPTKGSSLASAASEA [SSN8]	1
QKKNFLFKPLNKTLTLD [ARP7]	1
DIFAVNLEESSKLDIYT [RET1]	1
EHKPVSPDKIGTFTADY [SSN2]	1
EKKLEDYCRILSDIETA [YGL172W/NUP49]	1
LPHITQLEGFESRKAFF [RPB2]	1
NNSTGIANDNVITPHFI [SWI1]	1

----------
Known protein stability index of a selection of sequences
# assay_method_text: protein stability index of a GFP-peptide fusion (yeast GPS) (PSI 1-4); higher = more stable; sorted into four equal gates, so the index is relative within each strain
# test_context: san1∆

residue_sequence	protein stability index
PMDAYLKLNHIIANINS [SNU114]	1.97
QSEDLSHAVEFFMSERS [YML103C/NUP188]	3.25
FEWDISNSDNCPEEFAE [SNF5]	3.11
PTFSTHAQLLLSDRITG [PRP8]	1.57
SALQQIMYQQMLKYRRL [SNF2]	1.44
ANVVDITNDWEQPCVDI [YJR042W/NUP85]	3.23
MSVDIDKKASMIISGSR [ASC1]	1.71
PYGVYHPPFIKYACLAI [SIN4]	1.46
KVLLDSKDVQQIDYKLE [RPS7A]	3.31
AKPDNLANFSNEVAMNN [SWP82]	3.13
SNGNNLPLNKPRLEKLI [RGR1]	3.18
AKDKEIYNKMIGVLNNS [RPN13]	2.72
YKATATGPKQQEITTNL [SCL1]	2.93
SKIQEIESIRSCKDSQL [YIL149C/MLP2]	2.77
KIADNISKDENEDQFLE [YDL116W/NUP84]	2.86
FYSTNSQYFKFKNDFNS [RPN9]	2.1
ASSSAKLIEKKSAYANT [SMC2]	2.73
SSIQESLLSLVGHLSIL [ECM29]	1.83
LFIGLFTRPLFVLLEIE [YCS4]	2.11
KDGRIRIFKITEKLSPL [YGL100W/SEH1]	2.57
KKVNGTSYKKWSFDLPE [PRP8]	2.25
IFHPMIHYSWSFILYYR [YML103C/NUP188]	1.69
DWGQALRLLLLLIEFPY [YJR042W/NUP85]	1.39
LSDYIPGPYPNEQAARA [CYT1]	2.4
RIHRLARYYRTVAVLPP [RPS13]	2.44
LLKKIIFEKELMYQIKK [SRB4]	2.32
SNIPRGSVIQTHIAESA [MCD1]	2.62
SVKPHVVEPEHMADAKI [SIR4]	3.1
TKFKVRGSSSLYTLVIN [RPL38]	1.55
QPKAPRAPKVIHGQDFQ [ISW2]	2.94

----------
# assay_method_text: protein stability index of a GFP-peptide fusion (yeast GPS) (PSI 1-4); higher = more stable; sorted into four equal gates, so the index is relative within each strain
# test_context: doa10∆

residue_sequence	protein stability index
RMAKLCARFLGNRGFSI [RPO31]	2.35
TQDDFTTSVDVMLKGIV [SRP54]	1.63
LQSLNESKDLLRASFNK [SRB4]	3.16
SVEWMKVSPSMCGVIVK [SIN4]	1.74
DQSIASGNTNGAGSAFG [YOR098C/NUP1]	3.26
RKDKDAKFRLILIESRI [RPS13]	1.52
LITLFNKGELETQPGCN [RPO31]	2.71
KTGTKPAAVFAETLKHD [RPL4B]	2.17
NKQYELFMKSLIENCKK [SWI1]	2.58
NEESTNERLEINQEKPV [SIR4]	3.31
YQNRSTRSQFCLNTQRG [RRI1]	2.8
MSLINDAMVTRTPVIIS [SMD2]	1.26
IISSNENALIELKNELA [YIL149C/MLP2]	2.53
DVKLLHSQFMKDLKDDS [YJL039C/NUP192]	2.72

----------
# assay_method_text: protein stability index of a GFP-peptide fusion (yeast GPS) (PSI 1-4); higher = more stable; sorted into four equal gates, so the index is relative within each strain
# test_context: doa10∆
reported_endpoint: protein stability index

residue_sequence	reported_endpoint	reported_result
RLLAKDAMIAQRSKKIQ [DIS3]	protein stability index	1.24
NDRNPRLNENKKIGCYM [CSN12]	protein stability index	3.04
EKWISSKNSKLSIICVG [SIR3]	protein stability index	1.82
LEIDNKDSVTECSKDMK [SIR4]	protein stability index	3.46
VFGISKTSSGSYNYVEN [ITC1]	protein stability index	3.33
AGEFGLKNKKEIYRISF [RPS9A]	protein stability index	2.58
SKKLDVTVEQLRSIYHQ [NSL1]	protein stability index	2.42
SSLLSRLISSKMPGGFT [FAS2]	protein stability index	2.51

----------
# assay_method_text: protein stability index of a GFP-peptide fusion (yeast GPS) (PSI 1-4); higher = more stable; sorted into four equal gates, so the index is relative within each strain
# test_context: pdr5∆
Recorded protein stability index determines the group label, using low (below 2), middle (2 to below 3), high (3 or more)

residue_sequence	cat
SVDICNNSKSRYPMNLL [ECM29]	middle
IDSSNLPLQAQQQLYGG [SWI1]	high
IIGTFSDSYKVSLQNFS [RRP40]	low
IKKKKKKSKNGTISKTG [SRP14]	high
DSVEFIFQAKRNSNPEN [RPN10]	middle
NLIIFLYKFNGWSLVGR [YML103C/NUP188]	middle
NNNEDNENNNNSSEKNN [MED2]	high
TLEQKVNLENPIPIAVL [FAS1]	low
GKPTVNKKPKNKKKGRK [SRP72]	high
TNLKMKRKWSYVLYAKI [RRP43]	middle
DVHLLESKVYHKLRNLA [RPN6]	middle
SGKSNTSNDASNKKETK [ITC1]	high
KRNKYAAMLTSENAREI [RRP45]	high
GNPGRIRVLFKENGQLI [SEC65]	middle
SHTGLIRKYGLNICRQC [RPS29A]	low
VENSVLIEKVDDTAANN [YIL149C/MLP2]	middle
EALLVVLVSSVTEANII [RPS12]	low
HGGSRYATKDGVAHLLN [QCR2]	middle
NKRWKVDIGGKQHAVLM [RRP4]	high
NPTEFDWPTYVDQNPLT [SRB8]	middle
KNSSTSNTEPIPRSNRH [MED1]	high
GLSPKKVGEDIAKATKE [RPL12A]	high
FLVEYEGQENNYNSTSR [SIR4]	middle
TIQSDLNLSLHKLDLAK [SMC2]	middle
RLLAKDAMIAQRSKKIQ [DIS3]	low
ELLIYKKSQCKKKTTLE [YIL149C/MLP2]	high
WIRLRTNNTIRYNAKRR [RPL39]	middle
QKLDILVAKLKKVKSAS [SMC4]	middle
RRDDEVLVVRGSKKGQE [RPL26A]	high
RFRGKRVVYLKHLEDNT [RPL6A]	middle
SVSPQMNAILTDVKLTL [SMD1]	middle
RDLILTEYGRKYNVNIS [PRP8]	middle
VTNDLDTSAEKDQIQAG [SIR4]	high
ILMQQQMMARMAQTATQ [SRP54]	middle
SYPILNESSTFLKLVLS [SIN4]	middle
YIEEKHPTIYESLPQYV [POP4]	middle
EDNYNPKMQWSLQDNSA [RPN4]	high
EFSEHTFVERLPNETIN [DIS3]	middle
AFRTLRLARSEKKFRGI [RPL13A]	high
LERIVQIMQNPTHYKIP [RPS18A]	high
LPEILNVLCVNIKSNDF [ECM29]	low
MNGIQVDINRLKKGEVS [PRE3]	low
MKLSMPPEVTSSNCHVR [POP1]	middle
VILKQILQILDQDELVQ [SWP82]	middle
LTHPKYLNSRIIPTTLE [YML103C/NUP188]	middle
VEIAFLFRAIYLYCLDN [YCG1]	low
RILKNVSPNDNNSANNN [YMR153W/NUP53]	middle
QILIFAADTSIVEQDKS [YJL039C/NUP192]	middle
